// reported Inhibition for each item listed
- Test system: Acinetobacter baumannii
- Test Method Notes: Antibacterial activity against Acinetobacter baumannii ATCC 19606 (CO-ADD:GN_034); MIC in CAMBH media using NBS plates, by Resazurin F(560/590)
- Type: functional
- Condition Description: Concentration 20 uM, ASSAY_TEST Inhibition of Bacterial Growth, detection method Resazurin, Fluorescence (ex560/em590), MEDIA CAMHB, plate type 384well, CORNING #3640, time 18 hr

[
  {
    "Molecule": "Cc1ccc(S(=O)(=O)N(C)C)cc1[N+](=O)[O-]",
    "Inhibition / %": -5.08
  },
  {
    "Molecule": "CCOC(=O)c1cc2c(OC)c(OC)ccc2c2ncc(C#N)c(O)c12",
    "Inhibition / %": 4.98
  },
  {
    "Molecule": "Nc1ncnc2c1ncn2C1OC(CO)C(O)C1N (stereo not drawn)",
    "Inhibition / %": -14.65
  },
  {
    "Molecule": "CNc1ncnc2c1cnn2C1CCCCO1 (stereo not drawn)",
    "Inhibition / %": -13.53
  },
  {
    "Molecule": "NC(=O)C1=C(N)c2ccccc2C1c1ccccc1 (stereo not drawn)",
    "Inhibition / %": 2.22
  },
  {
    "Molecule": "CCOC(=O)c1ccc2c(c1)NCc1cccc(OC)c1O2",
    "Inhibition / %": -16.83
  },
  {
    "Molecule": "C=C(C)c1nc(Oc2ccccc2)nc(Oc2ccccc2)n1",
    "Inhibition / %": 6.26
  },
  {
    "Molecule": "Cc1cc(NC(=O)c2ccccc2)nc(C)n1",
    "Inhibition / %": -8.03
  },
  {
    "Molecule": "c1ccc(Sc2ncccn2)nc1",
    "Inhibition / %": -8.37
  },
  {
    "Molecule": "O=C(/C=C/C(=O)N1CCc2ccccc2C1)N1CCc2ccccc2C1",
    "Inhibition / %": -9.4
  },
  {
    "Molecule": "COc1ccc2c(c1)CCCN2C(=N)Nc1ccc(Cl)cc1",
    "Inhibition / %": 2.99
  },
  {
    "Molecule": "O=C1OCC/C1=C\\c1ccc2c(c1)OCO2",
    "Inhibition / %": -7.38
  },
  {
    "Molecule": "Cn1ncc2c(Nc3ccccc3Cl)nc(Cl)nc21",
    "Inhibition / %": 12.64
  }
]

###

- Test system: Acinetobacter baumannii
- Test Method Notes: Antibacterial activity against Acinetobacter baumannii ATCC 19606 (CO-ADD:GN_034); MIC in CAMBH media using NBS plates, by Resazurin F(560/590)
- Type: functional
- Condition Description: Concentration 20 uM, ASSAY_TEST Inhibition of Bacterial Growth, detection method Resazurin, Fluorescence (ex560/em590), MEDIA CAMHB, plate type 384well, CORNING #3640, time 18 hr

[
  {
    "Compound": "N#CCc1cnc2ccccc2n1",
    "Measurement Unit": "%",
    "Inhibition": -15.61
  },
  {
    "Compound": "N#CNC(=N)c1ccccc1",
    "Measurement Unit": "%",
    "Inhibition": 1.21
  },
  {
    "Compound": "CCCNC(=O)c1ccc(Cl)cc1Cl",
    "Measurement Unit": "%",
    "Inhibition": -15.87
  },
  {
    "Compound": "Cc1c(COC(=O)NC(C)C)c(COC(=O)NC(C)C)c2n1CS(=O)(=O)C2",
    "Measurement Unit": "%",
    "Inhibition": -7.7
  },
  {
    "Compound": "c1ccc(NCCSc2nc3ccccc3s2)cc1",
    "Measurement Unit": "%",
    "Inhibition": -17.22
  },
  {
    "Compound": "NNC(=O)c1nnsc1-c1csnn1",
    "Measurement Unit": "%",
    "Inhibition": 0.78
  },
  {
    "Compound": "O=C(Nc1ccc(C2=NCCCN2)cc1)Nc1ccc(C2=NCCCN2)cc1",
    "Measurement Unit": "%",
    "Inhibition": 9.82
  },
  {
    "Compound": "O=C(NN1CCCCC1)NN1CCCCC1",
    "Measurement Unit": "%",
    "Inhibition": 7.95
  },
  {
    "Compound": "CCOC(=O)c1c(N=C(S)NC)sc2c1CCCC2",
    "Measurement Unit": "%",
    "Inhibition": 0.51
  },
  {
    "Compound": "Oc1c(Cl)cc(Cl)cc1C1Nc2ccccc2-n2cccc21 (configuration not stated)",
    "Measurement Unit": "%",
    "Inhibition": 9.53
  },
  {
    "Compound": "O=C(O)c1cc2cc(OCc3ccccc3)ccc2[nH]1",
    "Measurement Unit": "%",
    "Inhibition": 10.19
  },
  {
    "Compound": "Nc1ccc(C(=O)C(=O)c2ccc(N)cc2)cc1",
    "Measurement Unit": "%",
    "Inhibition": -4.51
  },
  {
    "Compound": "N#CC1=C2CCCCC2(O)NC1=O (configuration not stated)",
    "Measurement Unit": "%",
    "Inhibition": -3.34
  },
  {
    "Compound": "Cc1cc(=O)[nH]c(N)n1",
    "Measurement Unit": "%",
    "Inhibition": -6.26
  },
  {
    "Compound": "CC1=NN(c2ccccc2)C(=O)C1/N=N/c1ccc(S(N)(=O)=O)cc1 (configuration not stated)",
    "Measurement Unit": "%",
    "Inhibition": 9.06
  },
  {
    "Compound": "CCCCSc1[nH]cnc2nncc1-2",
    "Measurement Unit": "%",
    "Inhibition": -0.75
  },
  {
    "Compound": "COC(=O)c1cc(C)c(C)cc1NC1OC(CO)C(O)C1O (configuration not stated)",
    "Measurement Unit": "%",
    "Inhibition": 7.51
  },
  {
    "Compound": "NC(=O)C1=CC2C3C=CC2(O)C(=O)OC3O1 (configuration not stated)",
    "Measurement Unit": "%",
    "Inhibition": 9.98
  },
  {
    "Compound": "CC1=CN2C(c3cccc([N+](=O)[O-])c3)=NON(c3ccc(C)cn3)C2C=C1 (configuration not stated)",
    "Measurement Unit": "%",
    "Inhibition": -11.84
  },
  {
    "Compound": "Oc1ccc(/C=C\\c2cnccn2)cc1",
    "Measurement Unit": "%",
    "Inhibition": -7.27
  },
  {
    "Compound": "Cc1nc(C(N)=O)nc2ccccc12",
    "Measurement Unit": "%",
    "Inhibition": -10.29
  },
  {
    "Compound": "O=[N+]([O-])c1c(N2CCN(CCO)CC2)nc2ccccn12",
    "Measurement Unit": "%",
    "Inhibition": -8.14
  },
  {
    "Compound": "CCC(C)Nc1nc2c(c(=O)n(C)c(=O)n2C)n1C (configuration not stated)",
    "Measurement Unit": "%",
    "Inhibition": 12.04
  },
  {
    "Compound": "CC(=O)OCc1cc(-c2nc3ccccc3nc2O)nn1-c1ccc(Cl)cc1",
    "Measurement Unit": "%",
    "Inhibition": 12.91
  },
  {
    "Compound": "FC(F)(F)c1nc2nc(Cl)c(Cl)nc2n1CCCN1CCOCC1",
    "Measurement Unit": "%",
    "Inhibition": 9.11
  },
  {
    "Compound": "Clc1nc(NCCc2ccccc2)c2c[nH]nc2n1",
    "Measurement Unit": "%",
    "Inhibition": 12.4
  },
  {
    "Compound": "CC1CN(CCN2CC(C)N(C=O)CC2C)C(C)CN1C=O (configuration not stated)",
    "Measurement Unit": "%",
    "Inhibition": -6.52
  }
]

###

- Tested on: Acinetobacter baumannii
- Test Method Notes: Antibacterial activity against Acinetobacter baumannii ATCC 19606 (CO-ADD:GN_034); MIC in CAMBH media using NBS plates, by Resazurin F(560/590)
- Type: functional
- Condition Description: Concentration 20 uM, ASSAY_TEST Inhibition of Bacterial Growth, detection method Resazurin, Fluorescence (ex560/em590), MEDIA CAMHB, plate type 384well, CORNING #3640, time 18 hr
// reported Inhibition for each item listed

[
  {
    "Molecule": "Oc1ccccc1-n1c(-c2ccccc2)ccc1-c1ccccc1",
    "Inhibition, %": 1.43
  },
  {
    "Molecule": "Cc1nc(S)nc(O)c1Cc1c(O)ccc2ccccc12",
    "Inhibition, %": -9.92
  },
  {
    "Molecule": "CC1=CC(=O)CC(C)(C)C1(O)/C=C/C(C)=C/C(=O)O (configuration not stated)",
    "Inhibition, %": -14.23
  },
  {
    "Molecule": "CCc1cccc2[nH]c3cc([N+](=O)[O-])ccc3c12",
    "Inhibition, %": 1.17
  },
  {
    "Molecule": "O=C1NCCc2c1[nH]c1ccccc21",
    "Inhibition, %": -2.97
  },
  {
    "Molecule": "O=C(Nc1ccc(Cl)cc1)c1cc2c(cc1O)[nH]c1ccccc12",
    "Inhibition, %": -12.34
  },
  {
    "Molecule": "O=c1nc(Nc2cccc(Cl)c2)oc2cc(Cl)oc(=O)c12",
    "Inhibition, %": 3.28
  },
  {
    "Molecule": "CC(C)=C(c1ccc(Cl)cc1)c1c(N)ncnc1N",
    "Inhibition, %": -10.84
  },
  {
    "Molecule": "COc1ccc2c(c1)CCN1C2CCN2C(=O)CCC21 (configuration not stated)",
    "Inhibition, %": -4.71
  },
  {
    "Molecule": "N#C/C(=C\\c1cc(O)c(O)c(O)c1)C(N)=O",
    "Inhibition, %": 6.06
  },
  {
    "Molecule": "Clc1ccccc1-c1nc(-c2ccncc2)no1 [PIFEXOLE]",
    "Inhibition, %": -11.63
  },
  {
    "Molecule": "CC(C)(C)NC(=O)c1ccc(C(=O)NC(C)(C)C)cc1",
    "Inhibition, %": -9.96
  }
]

The origin of these recorded values is ChEMBL document CHEMBL4296182.
